Values from ChEMBL document CHEMBL1201862

test system: RPMI-8226; experiment: NCI tumour cell line growth inhibition, 48 h
Calls of active or inactive are those of the source. Cut-off read from the data, not from the text of the source: active = GI50 up to about 1.1 µM and inactive = higher.
Return exactly one item of T for active, F for inactive

Take a look at these entries with their results.
O=C1C[C@@]23CCC4(CC2CCC[C@H]3O1)OCCO4 (stereo not given in full) : F
CC(CC(C)[C@H]1CCC2[C@H]3C(CC[C@@]21C)[C@@]1(C)CCC(O)C[C@H]1C[C@@H]3O)C(=O)O (stereo not given in full) : F
CCOC(=O)c1sc2nc(SC)nc3c2c1NCN3C : F

Could you now look at the following compound, please?
Would you mind telling me which call this test gave CCOC1NC(/N=C/c2ccc(OC)cc2)=C(C#N)C1C#N (stereo not given) ? F
